Hey, just so you know, these numbers are from paper PMC9352680.

Target: T1, PUF4 RNA-binding domain (Saccharomyces cerevisiae, UniProt P25339 537-888)
T1 sequence: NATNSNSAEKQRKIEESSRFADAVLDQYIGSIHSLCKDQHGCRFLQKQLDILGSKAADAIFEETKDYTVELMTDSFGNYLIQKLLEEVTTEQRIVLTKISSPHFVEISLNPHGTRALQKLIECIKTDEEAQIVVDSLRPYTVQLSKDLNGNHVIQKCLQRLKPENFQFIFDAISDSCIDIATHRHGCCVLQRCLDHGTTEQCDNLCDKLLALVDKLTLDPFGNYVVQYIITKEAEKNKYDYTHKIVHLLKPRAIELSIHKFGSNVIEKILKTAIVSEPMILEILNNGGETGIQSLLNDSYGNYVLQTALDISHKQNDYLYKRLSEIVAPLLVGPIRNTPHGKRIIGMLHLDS
Assay: Mg; RNA-MaP; 20 mM Na-HEPES pH 7.4, 30 mM KOAc, 0.75 mM MgCl2, 0.1% Tween-20, 5% glycerol, 0.1 mg/mL BSA, 2 mM DTT; 25 C; 0.0125-409.6 nM protein
Details: tags: N-His6-TEV cleaved; C-SNAP kept, Cy3B-labelled; label: tethered on chip by stalled RNA polymerase
ENDPOINT_NAME: Kd

Sample records with Kd:
| BINDER | ENDPOINT_NAME | RESULT |
| --- | --- | --- |
| Ib_S2_P5E.1_K5.1_C5.1_H5.1_A5.1_[T5A]_F5.1_[T8C]_T5.1 (ssRNA) RNA: UUUGAUUAAUAUGAUAUCGUUCUUUCUUGUAAUACUAUUCUUUCUCGAUAUCAUAUUAAUCUUU | Kd | 7.72 nM |
| Id_ii_S2_P5E.3_K5.2_C5.2_[C-2T]_H5.2_A5.1_F5.1_T5.2_[T11C]_[A12G] (ssRNA) RNA: UUUGAUUAAUAUGAUAUCGUUCUUUCUUUUAUAUUAUUACGUUCUUUCUCGAUAUCAUAUUAAUCUUU | Kd | 152 nM |
| Ie_S2_P4E.1_K4.1_C4.1_H4.1_[+3TT]_A4.1_F4.1_T4.1 (ssRNA) RNA: UUUGAUUAAUAUGAUAUCGUUCUUUCUUGUUUAUAUUAUUCUUUCUCGAUAUCAUAUUAAUCUUU | Kd | 34.1 nM |
| Id_ii_S4_P3E.2_K3.1_C3.2_[C-2A]_H3.1_A3.1_F3.1_T3.2_[A10T] (ssRNA) RNA: UUUGACAACUGAUCGUUCUUUCUAUUGUAUAUAUUUUCUUUCUCGAUCAGUUGUCUUU | Kd | 2.72 nM |
| Id_ii_S2_P4E.2_K4.1_C4.2_[T-1A]_H4.1_A4.1_F4.1_T4.2_[G10C] (ssRNA) RNA: UUUGAUUAAUAUGAUAUCGUUCUUUCUCAUGUAUAUUACUUUCUUUCUCGAUAUCAUAUUAAUCUUU | Kd | 0.716 nM |

Give a short answer stating reported Kd for ACAAACCGACACUAUACUACAAAC (ssRNA) [Id_ii_S3_P3E.4_K3.3_C3.2_[T-1G]_H3.3_A3.1_F3.1_T3.2_[T9C]_[A10T]] .
> 2300 nM

Please report Kd for the following binder: UCUCUUUGUAUGUAUCUCUU (ssRNA) [Ic_S1_P3E.1_K3.1_C3.1_H3.1_A3.1_[A6G]_F3.1_T3.1]
66.5 nM

Item UCUCUUUGUAUGUCAUUCUCUU (ssRNA) [Ic_S1_P5E.1_K5.1_C5.1_H5.1_A5.1_[T6G]_[A7T]_F5.1_[T8C]_[T9A]_[A10T]_T5.1] : provide Kd
297 nM
